Listing of entries alongside the reported Cytotox EC50 (nM) Donor 104.
# MEASUREMENT TARGET: human CD33 on CD33-expressing THP-1 cells (human, UniProt P20138 18-364)
# Sequence (P20138 18-364): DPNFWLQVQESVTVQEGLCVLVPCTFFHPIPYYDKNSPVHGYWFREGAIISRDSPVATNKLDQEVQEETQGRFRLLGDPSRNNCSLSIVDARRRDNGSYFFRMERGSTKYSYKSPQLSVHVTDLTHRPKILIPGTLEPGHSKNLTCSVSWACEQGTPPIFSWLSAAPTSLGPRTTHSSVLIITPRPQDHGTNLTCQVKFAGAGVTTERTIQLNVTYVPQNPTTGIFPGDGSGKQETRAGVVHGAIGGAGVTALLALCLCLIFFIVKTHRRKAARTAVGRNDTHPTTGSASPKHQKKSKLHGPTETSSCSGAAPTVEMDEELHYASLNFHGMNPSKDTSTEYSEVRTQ
# METHOD: cell-based or functional assay

>  <BINDER>
scFv-VHH bispecific molecule JL3 x 6H4 (scFv (VL-L-VH)-L-VHH with C-tag) (bispecific antibody) QSVLTQPPSASGTPGQRVTISCSGSSSNIGSNIVNWYQQFPGTAPKLLLYSDNQRPSGVPDRFSGSKSGTSASLAISGLQSEDEADYYCAAWDDSLNGPVFGTGTKVTVLGGSEGKSSGSGSESKSTGGSQVQLQESGPGLVKPSETLSLTCSVSGGSIRNYYWSWIRQSAGKELEWFGHIFSTGHINYDSSLKSRVTMSVDTSNNQFSLKLRSVTAADTAVYYCARDNGAALFDFWGQGTLVTVSSGGGGSEVQLVESGGGLVQAGGSLRLSCAASGRPFSNYGMGWFRQAPGKKREFVAGISWSGGSTDYADSVKGRFTISRDNAKNTVYLQMNSLKPEDTAVYYCAAVFSGAETAYYPSDDYDYWGQGTQVTVSSAAAEPEA

>  <Cytotox EC50 (nM) Donor 104>
~0.00079 nM

$$$$
>  <BINDER>
scFv-VHH bispecific molecule JL5 x 5D3 (scFv (VL-L-VH)-L-VHH with C-tag) (bispecific antibody) QSVLTQPPSASGTPGQRVTISCSGSSSNIGSNIVNWYQQFPGTAPKLLIYSNNQRPSGVPDRVSGSKSGTSASLAISGLQSEDEADYYCAAWDDSLNGPVFGPGTKVTVLGGSEGKSSGSGSESKSTGGSQVQLQESGPGLVKPSETLSLTCSVSGASIRNYYWSWIRQTAGKGLEWLGHIYSTGNIHYNPSLKSRVTMSVDTSNNQFSLKLRSVTAADTAVYYCARDNGAALFDYWGQGTLVTVSSGGGGSEVQLVESGGGLVQAGGSLRLSCAASGRPFSNYAMGWFRQAPGKEREFVTVISWSGGSTYYADSVKGRFTISRDNAKNTVYLQMNSLKPEDTAVYYCAAQFSGASTVVAGTALDYDYWGQGTRVTVSSAAAEPEA

>  <Cytotox EC50 (nM) Donor 104>
~0.00093 nM

$$$$
>  <BINDER>
scFv-VHH bispecific molecule JL4 x 5D3 (scFv (VL-L-VH)-L-VHH with C-tag) (bispecific antibody) DVVMTQSPLSLPVTLGQPASISCRSSQSLVYSDGNTYLNWFQQRPGQSPRRLIYKVSTRDSGVPDRFSGSGSGTDFTLKISRVEAEDVAVYYCLQGTHWPWTFGQGTKVEIKGGSEGKSSGSGSESKSTGGSQVQLVESGGGLVQPGGSLRLSCAASGITFSNYWMSWVRQAPGKGLEWVASIKRDGSDKYYVDSVKGRFTISRDNAKNSLSLQMHSLRAEDTAVYYCAKGEFDYWGQGTLVTVSSGGGGSEVQLVESGGGLVQAGGSLRLSCAASGRPFSNYAMGWFRQAPGKEREFVTVISWSGGSTYYADSVKGRFTISRDNAKNTVYLQMNSLKPEDTAVYYCAAQFSGASTVVAGTALDYDYWGQGTRVTVSSAAAEPEA

>  <Cytotox EC50 (nM) Donor 104>
~0.027 nM

$$$$
